- Method: Cell Titer-Glo Cell Viability Assay, genotype 1b cells
- Type: cell-based
- Conditions: human, Huh-Luc-Neo (HCV genotype 1b replicon) cells, HCV genotype 1b assays, read-out: Cytotoxicity* (CC50)
// reported CC50 at 72 h for each item listed
Measure Name: CC50 at 72 h

1) Cn1cc(C#Cc2ccc(NC(=O)[C@@H]3COCCN3C(=O)[C@H](NC(=O)OC(C)(C)C)c3ccccc3)cc2)c(-c2cc(F)ccc2O)n1 = > 100 µM
2) Cc1ccc(O)c(-c2nn(C)cc2C#Cc2ccc(NC(=O)C3CCCCN3C(=O)[C@@H](NC(=O)OC(C)(C)C)C3CCCCC3)cc2)c1 (stereo partly drawn) = > 100 µM
3) Cc1ccc(O)c(-c2nn(C)cc2C#Cc2ccc(NC(=O)[C@@H]3COCCN3C(=O)[C@H](NC(=O)OC(C)(C)C)c3ccccc3)cc2)c1 [Compound 23A] = > 100 µM

* * *

- Method: Cell Titer-Glo Cell Viability Assay, genotype 1b cells
- Type: cell-based
- Conditions: human, Huh-Luc-Neo (HCV genotype 1b replicon) cells, HCV genotype 1b assays, read-out: Cytotoxicity* (CC50)
Measure Name: CC50 at 72 h

1) Cc1ccc(O)c(-c2nn(C)cc2C#Cc2ccc(NC(=O)C3CCCCN3C(=O)[C@H](Cc3ccccc3)NC(=O)CC3CCCCC3)cc2)c1 (stereo partly drawn) = 10 to 100 µM
2) CN(C(=O)OC(C)(C)C)[C@@H](Cc1ccccc1)C(=O)N1CCCC[C@@H]1C(=O)Nc1ccc(C#Cc2cn(CCO)nc2-c2cc(Cl)ccc2O)cc1 = 10 to 100 µM
3) Cn1cc(C#Cc2ccc(NC(=O)[C@@H]3COCCN3C(=O)[C@H](NC(=O)NC(C)(C)C)c3ccccc3)cc2)c(-c2cc(Cl)ccc2O)n1 = 10 to 100 µM

* * *

- System: HCV genotype 1b replicon (Huh-Luc-Neo cells)
- Method: HCV Replicon RNA (Taqman) Assay, genotype 1b
- Assay type: cell-based
- Conditions: Hepatitis C virus, GETYPE1B; Huh-Luc-Neo cells, genotype 1b, HCV RNA, 72 h; read-out: HCV-1b Replicon Inhibition*, Taqman (EC50)
// reported EC50 for each item listed
Measure Name: EC50

1) Cc1ccc(O)c(-c2nn(C)cc2C#Cc2ccc(NC(=O)[C@@H]3COCCN3C(=O)[C@H](NC(=O)OC(C)(C)C)c3ccccc3)cc2)c1 [Compound 23A] = < 1 µM
2) Cc1ccc(O)c(-c2nn(C)cc2C#Cc2ccc(NC(=O)[C@@H]3CNCCN3C(=O)[C@H](NC(=O)OC(C)(C)C)c3ccccc3)cc2)c1 [Compound 27A] = < 1 µM
3) COc1ccccc1[C@@H](NC(=O)OC(C)(C)C)C(=O)N1CCOC[C@H]1C(=O)Nc1ccc(C#Cc2cn(C)nc2-c2cc(C#N)ccc2O)cc1 [Compound 22A] = < 1 µM

* * *

- Method: Cell Titer-Glo Cell Viability Assay, genotype 1b cells
- Assay type: cell-based
- Conditions: human, Huh-Luc-Neo (HCV genotype 1b replicon) cells, HCV genotype 1b assays, read-out: Cytotoxicity* (CC50)
// reported CC50 at 72 h for each item listed
Measure Name: CC50 at 72 h

1) Cn1cc(C#Cc2ccc(NC(=O)[C@@H]3COCCN3C(=O)[C@H](NC(=O)OC(C)(C)C)c3ccccc3)cc2)c(-c2cc(Cl)ccc2O)n1 [Example 51] = 10 to 100 µM
2) Cc1ccc(O)c(-c2nn(C)cc2C#Cc2ccc(NC(=O)[C@@H]3CN(C(=O)C(F)(F)F)CCN3C(=O)[C@H](NC(=O)OC(C)(C)C)c3ccccc3)cc2)c1 [Compound 41] = > 100 µM
3) Cn1cc(C#Cc2ccc(NC(=O)[C@@H]3COCCN3C(=O)[C@H](NC(=O)OC(C)(C)C)c3ccccc3)cc2)c(-c2cc(C#N)ccc2O)n1 [Compound 37] = > 100 µM
4) Cc1ccc(O)c(-c2nn(C)cc2C#Cc2ccc(NC(=O)C3CCCCN3C(=O)[C@H](Cc3ccccc3)NC(=O)NC(C)(C)C)cc2)c1 (stereo partly drawn) [Example 18] = > 100 µM
5) Cc1ccc(O)c(-c2nn(C)cc2C#Cc2ccc(NC(=O)C3CCCCN3C(=O)C(c3ccccc3)N(C)C(=O)OC(C)(C)C)cc2)c1 (stereo not drawn) [Compound 56] = 10 to 100 µM
6) Cc1ccc(OS(=O)(=O)C(F)(F)F)c(-c2nn(C)cc2C#Cc2ccc(NC(=O)C3CCCCN3C(=O)[C@H](Cc3ccccc3)NC(=O)OC(C)(C)C)cc2)c1 (stereo partly drawn) [Compound 11] = > 100 µM

* * *

- Tested on: HCV genotype 1a replicon (En5-3/Htat2ANeo cells)
- Method: HCV-1a Replicon RNA (Taqman) inhibition assay
- Type: cell-based
- Conditions: Hepatitis C virus, GETYPE1A, 72 h
pEC50: −log10 of the molar value.
Measure Name: pEC50

1) Cn1cc(C#Cc2ccc(NC(=O)[C@@H]3COCCN3C(=O)[C@H](NC(=O)N3CCOCC3)c3ccccc3)cc2)c(-c2cc(Cl)ccc2O)n1 [Example 17] = > 6.00

* * *

// reported CC50 at 72 h for each item listed
- Method: Cell Titer-Glo Cell Viability Assay, genotype 1b cells
- Assay type: cell-based
- Conditions: human, Huh-Luc-Neo (HCV genotype 1b replicon) cells, HCV genotype 1b assays, read-out: Cytotoxicity* (CC50)
- Method: Cell Seeding and Compound Treatment: Huh-Luc-Neo (Genotype 1b) or En5-3/Htat2ANeo (Genotype 1a) cells are seeded at 5000-7000/well in an opaque-walled 96 plate with Growth Medium (DMEM phenol red free+PS+2 mM glutamine; 100 ul/well). The compounds to be tested for inhibition of cell viability are added to the experimental wells so as to generate a dose response curve (8-9 concentrations, 10 μl/well at 10× assay concentration) and the cells are then incubated (5% CO2, 37° C.) for 72 h. […]
Measure Name: CC50 at 72 h

1) Cn1cc(C#Cc2ccc(NC(=O)[C@H]3CCCCN3C(=O)C(NC(=O)OC(C)(C)C)c3ccccc3)cc2)c(-c2cc(Br)ccc2O)n1 (stereo partly drawn) = 10 to 100 µM
2) Cc1ccc(O)c(-c2nn(C)cc2C#Cc2ccc(NC(=O)C3CCCCN3C(=O)[C@H](Cc3cccnc3)NC(=O)OC(C)(C)C)cc2)c1 (stereo partly drawn) = > 100 µM
3) CC(=O)Oc1ccc(C)cc1-c1nn(C)cc1C#Cc1ccc(NC(=O)C2CCCCN2S(=O)(=O)c2cccs2)cc1 (stereo not drawn) = > 100 µM
4) Cc1ccc(O)c(-c2nn(C)cc2C#Cc2ccc(NC(=O)C3CCCCN3C(=O)[C@H](Cc3ccc(Cl)cc3Cl)NC(=O)OC(C)(C)C)cc2)c1 (stereo partly drawn) = > 100 µM
5) Cc1ccc(O)c(-c2nn(C)cc2C#Cc2ccc(NC(=O)C3CCCCN3C(=O)C(NC(=O)OC(C)(C)C)c3ccccc3)cc2)c1 (stereo not drawn) = > 100 µM
6) Cc1ccc(O)c(-c2nn(C)cc2C#Cc2ccc(NC(=O)C3CCCCN3C(=O)[C@H](Cc3ccccc3)NC(=O)C3CCCCC3)cc2)c1 (stereo partly drawn) = 10 to 100 µM
7) COc1ccc(C[C@H](NC(=O)OC(C)(C)C)C(=O)N2CCCCC2C(=O)Nc2ccc(C#Cc3cn(C)nc3-c3cc(C)ccc3O)cc2)cc1 (stereo partly drawn) = < 1 µM
8) Cc1ccc(O)c(-c2nn(C)cc2C#Cc2ccc(NC(=O)C3CCCCN3C(=O)[C@H](Cc3ccccc3)N(C)C(=O)OC(C)(C)C)cc2)c1 (stereo partly drawn) = 10 to 100 µM
9) CC(C)(C)OC(=O)N[C@@H](C(=O)N1CCCC[C@H]1C(=O)Nc1ccc(C#Cc2c[nH]nc2-c2cc(Cl)ccc2O)cc1)c1ccccc1 = > 100 µM
10) CC(C)(C)OC(=O)N[C@@H](C(=O)N1CCCC[C@H]1C(=O)Nc1ccc(C#Cc2cn(CCO)nc2-c2cc(Cl)ccc2O)cc1)c1ccccc1 = 10 to 100 µM
11) Cc1ccc(O)c(-c2nn(C)cc2C#Cc2ccc(NC(=O)C3CCCCN3C(=O)[C@H](Cc3ccc(Cl)cc3)NC(=O)OC(C)(C)C)cc2)c1 (stereo partly drawn) = 10 to 100 µM
12) Cn1cc(C#Cc2ccc(NC(=O)[C@@H]3COCCN3C(=O)[C@H](NC(=O)OC(C)(C)C)c3ccsc3)cc2)c(-c2cc(C#N)ccc2O)n1 = > 100 µM

* * *

- Method: Cell Titer-Glo Cell Viability Assay, genotype 1b cells
- Type: cell-based
- Conditions: human, Huh-Luc-Neo (HCV genotype 1b replicon) cells, HCV genotype 1b assays, read-out: Cytotoxicity* (CC50)
Measure Name: CC50 at 72 h

1. Cc1ccc(O)c(-c2nn(C)cc2C#Cc2ccc(NC(=O)C3CCCCN3C(=O)[C@H](CCc3ccccc3)NC(=O)OC(C)(C)C)cc2)c1 (stereo partly drawn) = 10 to 100 µM
2. Cc1ccc(O)c(-c2nn(C)cc2C#Cc2ccc(NC(=O)C3CCCCN3C(=O)[C@H](Cc3ccccc3)NC(=O)OC(C)(C)C)cc2)c1 (stereo partly drawn) = > 100 µM
3. Cc1ccc(O)c(-c2nn(C)cc2C#Cc2ccc(NC(=O)C3CCCCN3C(=O)[C@H](Cc3ccccc3)NC(=O)CC3CCCC3)cc2)c1 (stereo partly drawn) = > 100 µM
4. CC(C)(C)OC(=O)N[C@@H](C(=O)N1CCOCC1C(=O)Nc1ccc(C#Cc2cn(CCO)nc2-c2cc(Cl)ccc2O)cc1)c1ccccc1 (stereo partly drawn) [Compound 30A] = > 100 µM
5. CCOC(=O)c1ccc(O)c(-c2nn(C)cc2C#Cc2ccc(NC(=O)[C@@H]3CCCCN3C(=O)[C@H](NC(=O)OC(C)(C)C)c3ccsc3)cc2)c1 = > 100 µM
6. Cn1cc(C#Cc2ccc(NC(=O)[C@@H]3CCCCN3C(=O)[C@H](NC(=O)OC(C)(C)C)c3ccccc3)cc2)c(-c2cc(Br)ccc2O)n1 = 10 to 100 µM
